- ASSAY NAME: Cytotoxicity against African green monkey Vero cells assessed as […]
- Type: cell-based
- MEASUREMENT CONTEXT: chlorocebus sabaeus
ENDPOINT NAME: CC50

CC1(C)[C@H]2CC=C(CNC(=O)C34CC5CC(CC(C5)C3)C4)[C@@H]1C2	1910 µM
CC1(C)[C@@H]2CC[C@@]1(C)[C@H](NC(=O)C13CC4CC(CC(C4)C1)C3)C2	317 µM
CC1(C)[C@H]2CC=C(C(=O)NC34CC5CC(CC(C5)C3)C4)[C@@H]1C2	7.9 µM
C=C(C)[C@@H]1CC=C(CNC(=O)C23CC4CC(CC(C4)C2)C3)CC1	319 µM
CC(C)CCCC(C)CCNC(=O)C12CC3CC(CC(C3)C1)C2 (stereo unspecified)	17.3 µM
CC1(C)[C@H]2CC=C(CCNC(=O)C34CC5CC(CC(C5)C3)C4)[C@@H]1C2	750 µM
CC1(C)[C@H]2CC[C@](C)(C2)[C@H]1NC(=O)C12CC3CC(CC(C3)C1)C2	317 µM
CC1(C)[C@@H]2CC[C@@]1(CS(=O)(=O)NC13CC4CC(CC(C4)C1)C3)C(=O)C2	164 µM
CC(C)=CCC[C@H](C)CCNC(=O)C12CC3CC(CC(C3)C1)C2	18.1 µM
CC(C)=CCC/C(C)=C\CNC(=O)C12CC3CC(CC(C3)C1)C2	12.9 µM
CC1(C)[C@@H]2CC[C@@]1(CS(=O)(=O)NC1C3CC4CC(C3)CC1C4)C(=O)C2 (stereo partly specified)	95.8 µM
